tested on: Saccharomyces cerevisiae; assay: protein stability index of tFT-peptide fusion (C-terminal peptide) (PSI (0-1 scale)); higher = more stable (slower turnover); conditions: genetic background: wild type; temperature: 30 C;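 also: PSI is a weighted mean of sequencing reads over stability bins, variants kept only with over 10 reads, mCherry proximal and sfGFP distal, peptide attached via GGGS linker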
# label = label 1 if protein stability index >= 0.7 else label 0

[[record]]
residue_codes = "NFCSSGLPLLII"
assigned_label = "label 0"

[[record]]
residue_codes = "PSVPLLPPAPLS"
assigned_label = "label 1"

[[record]]
residue_codes = "FLPPPLAAPFLF"
assigned_label = "label 0"

[[record]]
residue_codes = "ERRERGGERNTP"
assigned_label = "label 0"

[[record]]
residue_codes = "VVSSSMGCCFRG"
assigned_label = "label 0"

[[record]]
residue_codes = "LASREFGVFCIW"
assigned_label = "label 0"

[[record]]
residue_codes = "QIISSVFEATSY"
assigned_label = "label 0"

[[record]]
residue_codes = "PHRPCPPPAPPP"
assigned_label = "label 0"

[[record]]
residue_codes = "EVGLSVLLPGGG"
assigned_label = "label 0"

[[record]]
residue_codes = "WEVGVGRQDVEW"
assigned_label = "label 1"

[[record]]
residue_codes = "WIRVYPDSSSPL"
assigned_label = "label 1"

